- ASSAY INFO: A CellTox Green Cytotoxicity Assay to monitor cytotoxicity in HepG2 cells - 16 hour (AID 1224876); also: nearly all actives have a fitted effect of over 45% in size
- TEST CONTEXT: CellTox Green fluorescence; series mostly up to 76.8 µM
Results filed as inconclusive are left out. Activity calls are given as the source filed them. Calls follow the shape of the dose curve; as a rule, active = well fitted activation curve with a large enough effect in the repeat runs; inconclusive = weak or mixed curves; inactive = flat fitted curve, though single readings scatter.
REPORTED PROPERTY: cytotoxicity increase

[[record]]
compound = "CCOC(=O)[C@H](CCc1ccccc1)N[C@H]1CS[C@H](c2cccs2)CN(CC(=O)O)C1=O"
val = "inactive"

[[record]]
compound = "CC[N+](C)(CC)CC"
val = "inactive"

[[record]]
compound = "CC(C)(C)C(=O)CCc1ccc(Cl)cc1"
val = "inactive"

[[record]]
compound = "O=Cc1ccccc1S(=O)(=O)O"
val = "inactive"

[[record]]
compound = "CCCCCCCCCCCCCCCC/C=C/C1CC(=O)OC1=O (stereo unspecified)"
val = "inactive"

[[record]]
compound = "C=CCOC(=O)CCCCCCCC"
val = "inactive"


The reported cytotoxicity increase of the compound N[C@H]1C(O)O[C@H](CO)[C@@H](O)[C@@H]1O (stereo partly specified) was inactive

Record `CCCCCCC(=O)c1ccccc1` , field cytotoxicity increase: inactive

Data point: `CCOC(=O)c1ccc(N(C)C)cc1` ; cytotoxicity increase = inactive

For reference, reported cytotoxicity increase for `C/C=C/C(=O)CCCC` stands at inactive

The reported value for `CCC(=O)OCCOc1ccccc1` in terms of cytotoxicity increase is inactive

// cytotoxicity increase value for `CC(C)(C)c1ccc(C(=O)CCCCl)cc1` : inactive

For reference, reported cytotoxicity increase for `Cc1ccc2cccnc2c1` stands at inactive

Form field cytotoxicity increase, entry `CC(C)(O)c1ccc(C(C)(C)O)cc1` : inactive

----------
- ASSAY INFO: qHTS assay to identify small molecule antagonists of the thyroid receptor (TR) signaling pathway (AID 743065); also: nearly all actives have a fitted effect of over 55% in size
- TEST CONTEXT: GH3.TRE-Luc, T3-stimulated luciferase inhibition, 23.5 h; series mostly up to 70.3 µM
Records with an inconclusive call do not appear. The source made the active and inactive calls. The call rests on the fitted dose curve; in most records, active means well fitted inhibition curve with a large enough effect in the repeat runs; inconclusive means weak or mixed curves; inactive means no such curve, though single readings can be large or run the other way.
REPORTED PROPERTY: activity, negative = inhibition

[[record]]
compound = "CC(C)C[P+](C)(CC(C)C)CC(C)C"
val = "inactive"

[[record]]
compound = "COCc1nnc(-c2ccc[n+]([O-])c2)n1-c1c(Cl)c(Cl)cc2[nH]c(=O)c(=O)[nH]c12"
val = "inactive"

[[record]]
compound = "CC[N+](C)(CC)CC"
val = "inactive"

[[record]]
compound = "CC(=O)OC1CCC(C(C)(C)C)CC1 (stereo not given)"
val = "inactive"

[[record]]
compound = "NCC1CCC(C(=O)Oc2ccc(CCC(=O)O)cc2)CC1 (stereo not given)"
val = "inactive"

[[record]]
compound = "O=C(O)P(=O)(O)O"
val = "inactive"


Memo: `C/C=C(\C)C=O` , reported activity, negative = inhibition: inactive

Data point: `CN(C)CCC[C@@]1(c2ccc(F)cc2)OCc2cc(C#N)ccc21` ; activity, negative = inhibition = inactive

Form field activity, negative = inhibition, entry `COC(=O)/C=C(\C)CCC=C(C)C` : inactive

// recorded activity, negative = inhibition for C=CC(C)(CCC=C(C)C)OC(=O)C(C)C (stereo not given) : inactive

Recorded activity, negative = inhibition (compound `CC1(C)C(=O)C(C)(C)C1=O` ): inactive

The measured activity, negative = inhibition associated with `CCO[Si](CC(C)C)(OCC)OCC` reads inactive

Record CC(CN1CC(=O)NC(=O)C1)N1CC(=O)NC(=O)C1 (stereo not given) . Reported activity, negative = inhibition: inactive

Reported activity, negative = inhibition ( `Cc1ccc2cccnc2c1` ) = inactive

// `CC(=O)Oc1ccc(C(C)=O)cc1` : activity, negative = inhibition value = inactive

According to the records, this compound `O=C(c1ccccc1)c1cccc(O)c1` displays activity, negative = inhibition of inactive

// sample `CCOC(=O)CC` , its activity, negative = inhibition was inactive

Field activity, negative = inhibition (entry `CCCCCCCCS(=O)(=O)O` ) reads inactive

Field activity, negative = inhibition (entry `O=C1Nc2ccccc2C1=O` ) reads inactive

Notebook: `NC(=O)CC[C@@H](N)C(=O)O` , activity, negative = inhibition read as inactive

Reference source for all entries: PubChem BioAssay (Tox21)
